- System: 3-dpf Zebrafish Embryos Challenged with LPS (P. aeruginosa 60 μg/mL)
- Format: in vivo, Danio rerio
- Run parameters: 3-dpf embryos; P. aeruginosa LPS 60 μg/mL; compound 10 μM; 24 hours; n=16
Counter-ions that a name gives are not always drawn.
Please use 1 (yes) for Percent Rescue (Mort + Tail Edema) under 60% and 0 (no) for everything else, ties included.

Past entries and their recorded results:
Compound	System under test	Assigned class
Cc1ccc(Sc2ccccc2N2CCNCC2)c(C)c1 [Compound 376, Vortioxetine]	3-dpf Zebrafish Embryos Challenged with LPS (P. aeruginosa 60 μg/mL)	0 (no)
Nc1ccc(S(=O)(=O)c2ccc(N)cc2)cc1 [Compound 155, Dapsone]	3-dpf Zebrafish Embryos Challenged with LPS (P. aeruginosa 60 μg/mL)	0 (no)

Request: Threshold test, Percent Rescue (Mort + Tail Edema) < 60%: CC(C)(C)c1cc(NC(=O)Nc2ccc(-c3cn4c(n3)sc3cc(OCCN5CCOCC5)ccc34)cc2)no1 [Compound 598, Quizartinib (AC220)]
Result: 1 (yes)

Request: Try the compound COc1ccc2c(c1)N(C[C@H](C)CN(C)C)c1ccccc1S2 [Compound 316, Levomepromazine]
Result: 0 (no)

Request: Try the compound CCCCCNC(=N)N/N=C/c1c[nH]c2ccc(OC)cc12 [Compound 400, Tegaserod (maleate)]
Result: 0 (no)

Request: Try the compound COc1nc2ccc(Br)cc2cc1[C@@H](c1ccccc1)[C@@](O)(CCN(C)C)c1cccc2ccccc12 [Compound 227, Bedaquiline]
Result: 0 (no)

Request: Try the compound CN[C@H]1CC[C@@H](c2ccc(Cl)c(Cl)c2)c2ccccc21 [Compound 37, Sertraline (hydrochloride)]
Result: 0 (no)

Request: Try the compound CCN(CC)CCNC(=O)c1c(C)[nH]c(/C=C2\C(=O)Nc3ccc(F)cc32)c1C [Compound 621, Sunitinib Malate]
Result: 0 (no)
